# Test system: PPARa:RXRa (NR concentration 270 nM, RXRa partner concentration 90 nM)
# experiment: PBM binding z-score (relative to random genomic background probes); higher = stronger binding; sequences stand for … in GC…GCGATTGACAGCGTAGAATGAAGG
Hi, to clarify the labels: True covers PBM binding z-score from 2 upward, False covers anything below 2.

Recorded results for 3 sequences are shown here.
1. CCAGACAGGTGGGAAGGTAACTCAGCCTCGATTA
False
2. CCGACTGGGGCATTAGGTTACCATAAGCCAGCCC
False
3. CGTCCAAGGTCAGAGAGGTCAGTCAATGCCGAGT
True

# input Item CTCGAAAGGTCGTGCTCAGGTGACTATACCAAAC with PBM binding z-score of 2 or above?
# output True

# input Evaluate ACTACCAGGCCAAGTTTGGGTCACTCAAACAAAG : PBM binding z-score at minimum 2?
# output False

# input Is it the case that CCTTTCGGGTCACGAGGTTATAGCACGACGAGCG has PBM binding z-score reaching or exceeding 2?
# output True

# input Dear colleague, could you confirm whether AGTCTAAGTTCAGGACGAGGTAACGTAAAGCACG has PBM binding z-score at or above 2?
# output False

# input Please check the record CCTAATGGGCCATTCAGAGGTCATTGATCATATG and state if its PBM binding z-score is at or above 2.
# output True

# input API: above_or_equal(metric=PBM binding z-score, cutoff=2) for item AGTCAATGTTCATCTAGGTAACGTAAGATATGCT
# output False

# input # bool: PBM binding z-score of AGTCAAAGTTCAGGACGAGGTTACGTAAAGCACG >= 2
# output True

# input Decide: is the reported value of PBM binding z-score for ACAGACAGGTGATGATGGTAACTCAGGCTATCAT equal to or greater than 2?
# output False

# input Does PBM binding z-score meet or surpass 2 for CGTCCAAGGTCAATGCTAGGTAAGTGAAAGCATT ?
# output True

---

# System: PPARg:RXRa IVT, anti-PPARg (NR concentration 270 nM, RXRa partner concentration 90 nM)
# experiment: PBM binding z-score (relative to random genomic background probes); higher = stronger binding; sequences stand for … in GC…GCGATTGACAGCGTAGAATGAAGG
endpoint label: PBM binding z-score

1. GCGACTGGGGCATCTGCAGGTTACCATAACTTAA
2.96
2. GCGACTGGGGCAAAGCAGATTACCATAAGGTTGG
3.29
3. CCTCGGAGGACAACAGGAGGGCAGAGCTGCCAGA
-0.306
4. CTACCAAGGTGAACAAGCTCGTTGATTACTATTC
2.23
5. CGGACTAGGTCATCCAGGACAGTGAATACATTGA
7.58
6. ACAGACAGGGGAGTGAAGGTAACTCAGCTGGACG
-0.191

# input Provide measured PBM binding z-score on PPARg:RXRa IVT, anti-PPARg (NR concentration 270 nM, RXRa partner concentration 90 nM) for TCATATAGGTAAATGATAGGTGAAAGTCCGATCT please.
# output 2.51

# input GET PBM binding z-score where system = PPARg:RXRa IVT, anti-PPARg (NR concentration 270 nM, RXRa partner concentration 90 nM) and item = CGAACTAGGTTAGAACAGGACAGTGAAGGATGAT
# output 4.21

# input # return PBM binding z-score for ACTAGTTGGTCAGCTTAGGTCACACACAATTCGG , test system: PPARg:RXRa IVT, anti-PPARg (NR concentration 270 nM, RXRa partner concentration 90 nM)
# output 1.87

# input Give PBM binding z-score for this entry on PPARg:RXRa IVT, anti-PPARg (NR concentration 270 nM, RXRa partner concentration 90 nM): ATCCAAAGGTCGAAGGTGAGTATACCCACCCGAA
# output 2.51

# input Report value: PBM binding z-score, system: PPARg:RXRa IVT, anti-PPARg (NR concentration 270 nM, RXRa partner concentration 90 nM), sequence: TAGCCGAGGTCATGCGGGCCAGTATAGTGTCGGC
# output 4.29

# input Specify the recorded PBM binding z-score for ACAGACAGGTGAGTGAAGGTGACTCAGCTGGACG , system: PPARg:RXRa IVT, anti-PPARg (NR concentration 270 nM, RXRa partner concentration 90 nM).
# output 1.24

# input Recall the reported PBM binding z-score of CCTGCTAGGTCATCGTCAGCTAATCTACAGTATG when tested on PPARg:RXRa IVT, anti-PPARg (NR concentration 270 nM, RXRa partner concentration 90 nM).
# output 3.59

# input Specify the recorded PBM binding z-score for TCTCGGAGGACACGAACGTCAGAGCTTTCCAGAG , system: PPARg:RXRa IVT, anti-PPARg (NR concentration 270 nM, RXRa partner concentration 90 nM).
# output -0.0503

# input Determine reported PBM binding z-score for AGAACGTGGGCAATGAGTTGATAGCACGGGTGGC ; test system: PPARg:RXRa IVT, anti-PPARg (NR concentration 270 nM, RXRa partner concentration 90 nM).
# output -0.0857

# input Quote PPARg:RXRa IVT, anti-PPARg (NR concentration 270 nM, RXRa partner concentration 90 nM) PBM binding z-score for entry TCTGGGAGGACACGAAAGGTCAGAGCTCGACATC .
# output 1.89

# input Recall the reported PBM binding z-score of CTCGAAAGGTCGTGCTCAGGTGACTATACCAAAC when tested on PPARg:RXRa IVT, anti-PPARg (NR concentration 270 nM, RXRa partner concentration 90 nM).
# output 2.13

# input Retrieve PBM binding z-score on PPARg:RXRa IVT, anti-PPARg (NR concentration 270 nM, RXRa partner concentration 90 nM); query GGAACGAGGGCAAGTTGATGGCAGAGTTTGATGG
# output 2.56

# input Enter PBM binding z-score (test system PPARg:RXRa IVT, anti-PPARg (NR concentration 270 nM, RXRa partner concentration 90 nM)) for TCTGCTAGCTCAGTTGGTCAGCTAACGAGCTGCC
# output 0.0097

# input Output reported PBM binding z-score of the sequence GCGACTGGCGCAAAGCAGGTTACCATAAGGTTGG on PPARg:RXRa IVT, anti-PPARg (NR concentration 270 nM, RXRa partner concentration 90 nM).
# output -0.321

# input Give measured PBM binding z-score for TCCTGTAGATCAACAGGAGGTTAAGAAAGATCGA (PPARg:RXRa IVT, anti-PPARg (NR concentration 270 nM, RXRa partner concentration 90 nM)).
# output 0.245

# input Provide PPARg:RXRa IVT, anti-PPARg (NR concentration 270 nM, RXRa partner concentration 90 nM) PBM binding z-score reading for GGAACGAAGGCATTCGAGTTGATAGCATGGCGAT .
# output -0.69

# input For PPARg:RXRa IVT, anti-PPARg (NR concentration 270 nM, RXRa partner concentration 90 nM), give the measured PBM binding z-score of the entry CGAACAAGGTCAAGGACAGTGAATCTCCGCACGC
# output 4.49

# input Identify measured PBM binding z-score obtained with PPARg:RXRa IVT, anti-PPARg (NR concentration 270 nM, RXRa partner concentration 90 nM) for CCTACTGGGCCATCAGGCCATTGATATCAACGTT .
# output 3.8

# input Identify measured PBM binding z-score obtained with PPARg:RXRa IVT, anti-PPARg (NR concentration 270 nM, RXRa partner concentration 90 nM) for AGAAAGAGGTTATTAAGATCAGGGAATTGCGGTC .
# output 1.4

# input Under PPARg:RXRa IVT, anti-PPARg (NR concentration 270 nM, RXRa partner concentration 90 nM): report PBM binding z-score of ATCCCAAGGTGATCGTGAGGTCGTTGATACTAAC .
# output 0.592

---

# Test system: RARg:RXRa (NR concentration 270 nM, RXRa partner concentration 90 nM)
# experiment: PBM binding z-score (relative to random genomic background probes); higher = stronger binding; sequences stand for … in GC…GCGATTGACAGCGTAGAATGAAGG
Lab note: anything with PBM binding z-score at or over 0.9 counts as Criterion met; the rest go in Criterion not met.

1. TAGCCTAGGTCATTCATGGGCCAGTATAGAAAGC
Criterion met
2. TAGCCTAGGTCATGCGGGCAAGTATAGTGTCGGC
Criterion met
3. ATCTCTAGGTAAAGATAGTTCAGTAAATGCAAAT
Criterion not met
4. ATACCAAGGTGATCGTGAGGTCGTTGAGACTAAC
Criterion met
5. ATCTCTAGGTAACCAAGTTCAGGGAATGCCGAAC
Criterion not met

# input Identify whether the reported PBM binding z-score of the following sequence is 0.9 or greater: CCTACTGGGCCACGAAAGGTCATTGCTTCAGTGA
# output Criterion met

# input Test whether the sequence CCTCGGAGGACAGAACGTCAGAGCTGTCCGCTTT records PBM binding z-score of 0.9 or higher.
# output Criterion not met

# input Could you tell me if the measured PBM binding z-score of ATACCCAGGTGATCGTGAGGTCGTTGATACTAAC reaches 0.9 or more?
# output Criterion met

# input PBM binding z-score >= 0.9 for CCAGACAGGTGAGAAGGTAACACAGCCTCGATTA ?
# output Criterion not met

# input Please check the record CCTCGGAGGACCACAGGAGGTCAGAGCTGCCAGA and state if its PBM binding z-score is at or above 0.9.
# output Criterion met

# input Reported PBM binding z-score reaches at least 0.9 for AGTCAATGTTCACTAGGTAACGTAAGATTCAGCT ?
# output Criterion not met

# input Tell me whether PBM binding z-score is at least 0.9 here: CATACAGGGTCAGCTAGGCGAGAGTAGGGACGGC
# output Criterion met

# input Check if PBM binding z-score >= 0.9 (inclusive). Item: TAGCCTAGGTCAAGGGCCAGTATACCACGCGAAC
# output Criterion met

# input Quick check, PBM binding z-score >= 0.9? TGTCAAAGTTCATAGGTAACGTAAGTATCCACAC
# output Criterion met

# input Reported PBM binding z-score at or above 0.9? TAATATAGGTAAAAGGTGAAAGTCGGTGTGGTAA
# output Criterion met

# input Dear colleague, could you confirm whether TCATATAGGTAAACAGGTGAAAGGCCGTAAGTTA has PBM binding z-score at or above 0.9?
# output Criterion not met

# input Can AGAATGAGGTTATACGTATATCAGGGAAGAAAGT be said to have PBM binding z-score at or above 0.9?
# output Criterion met

# input Identify whether the reported PBM binding z-score of the following sequence is 0.9 or greater: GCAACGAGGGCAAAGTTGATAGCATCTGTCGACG
# output Criterion met

# input Could you verify whether the entry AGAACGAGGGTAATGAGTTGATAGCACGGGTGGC shows PBM binding z-score of no less than 0.9?
# output Criterion not met

# input Dear colleague, could you confirm whether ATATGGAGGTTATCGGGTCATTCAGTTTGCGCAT has PBM binding z-score at or above 0.9?
# output Criterion met

# input Reported PBM binding z-score at or above 0.9? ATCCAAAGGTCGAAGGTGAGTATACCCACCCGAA
# output Criterion met

# input Check this sequence for PBM binding z-score at or above 0.9: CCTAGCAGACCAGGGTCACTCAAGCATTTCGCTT
# output Criterion met

# input API: above_or_equal(metric=PBM binding z-score, cutoff=0.9) for item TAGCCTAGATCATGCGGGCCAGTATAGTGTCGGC
# output Criterion not met

# input Given the entry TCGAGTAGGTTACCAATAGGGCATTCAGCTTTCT , answer whether its PBM binding z-score meets or surpasses 0.9.
# output Criterion met

# input Could you tell me if the measured PBM binding z-score of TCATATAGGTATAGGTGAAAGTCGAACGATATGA reaches 0.9 or more?
# output Criterion not met
